# Experiment notes: physchem
# Measurement conditions: pH 6.8, aqueous buffer, kinetic from dmso stock
solubility at 24 h listing for selected compounds.

Compound	solubility at 24 h, µM
Cc1nonc1CC(=O)N1CCC(n2nnc(-c3ccc(F)cc3)n2)CC1	4.63
Cn1ncnc1CC(=O)N1CC2CC1CC2c1nc(-c2ccc(Cl)c(F)c2)no1 (stereo not shown)	186
Cc1nonc1CC(=O)N1CCC(c2nc(-c3ccc(F)cc3)no2)CC1 [mCIS635]	34.4
Cn1ncnc1CC(=O)N1CCC(c2nc(-c3ccc(Cl)c(Cl)c3)no2)CC1	160

###

# Measurement conditions: 0.98 µM, pH 7.2
ER mouse listing for selected molecules.

Molecule	ER mouse
Cn1ncnc1CC(=O)N1CC2CC1CC2c1nc(-c2ccc(Cl)c(F)c2)no1 (stereo not shown)	0.3
Cc1nonc1CC(=O)N1CCC(c2nc(-c3ccc(F)cc3)no2)CC1 [mCIS635]	0.4
Cn1ncnc1CC(=O)N1CCC(c2nc(-c3ccc(Cl)c(Cl)c3)no2)CC1	0.3
Cc1nonc1CC(=O)N1CCC(n2nnc(-c3ccc(F)cc3)n2)CC1	0.3

###

# System: CYP1A2, CYP2C9, CYP2C19, CYP2D6, CYP3A4
# Experiment notes: in vitro
# Measurement conditions: human, pH 7.2
Quantity kind: IC50 at 10 min

Compound	Quantity kind	Recorded result
Cc1nonc1CC(=O)N1CCC(n2nnc(-c3ccc(F)cc3)n2)CC1	IC50 at 10 min	> 30 µM
Cc1nonc1CC(=O)N1CCC(c2nc(-c3ccc(F)cc3)no2)CC1 [mCIS635]	IC50 at 10 min	> 50 µM
Cn1ncnc1CC(=O)N1CCC(c2nc(-c3ccc(Cl)c(Cl)c3)no2)CC1	IC50 at 10 min	> 50 µM
Cn1ncnc1CC(=O)N1CC2CC1CC2c1nc(-c2ccc(Cl)c(F)c2)no1 (stereo not shown)	IC50 at 10 min	> 30 µM

###

# Experiment notes: in vitro
# Measurement conditions: CD-1, mouse, plasma
Quantity kind: fraction unbound at 4 h

Molecule	Quantity kind	Recorded result
Cc1nonc1CC(=O)N1CCC(c2nc(-c3ccc(F)cc3)no2)CC1 [mCIS635]	fraction unbound at 4 h	0.056
Cc1nonc1CC(=O)N1CCC(n2nnc(-c3ccc(F)cc3)n2)CC1	fraction unbound at 4 h	0.173
Cn1ncnc1CC(=O)N1CC2CC1CC2c1nc(-c2ccc(Cl)c(F)c2)no1 (stereo not shown)	fraction unbound at 4 h	0.116
Cn1ncnc1CC(=O)N1CCC(c2nc(-c3ccc(Cl)c(Cl)c3)no2)CC1	fraction unbound at 4 h	0.037

###

# Measured on: hERG potassium channel (Homo sapiens, UniProt Q12809)
# Sequence (Q12809 whole entry): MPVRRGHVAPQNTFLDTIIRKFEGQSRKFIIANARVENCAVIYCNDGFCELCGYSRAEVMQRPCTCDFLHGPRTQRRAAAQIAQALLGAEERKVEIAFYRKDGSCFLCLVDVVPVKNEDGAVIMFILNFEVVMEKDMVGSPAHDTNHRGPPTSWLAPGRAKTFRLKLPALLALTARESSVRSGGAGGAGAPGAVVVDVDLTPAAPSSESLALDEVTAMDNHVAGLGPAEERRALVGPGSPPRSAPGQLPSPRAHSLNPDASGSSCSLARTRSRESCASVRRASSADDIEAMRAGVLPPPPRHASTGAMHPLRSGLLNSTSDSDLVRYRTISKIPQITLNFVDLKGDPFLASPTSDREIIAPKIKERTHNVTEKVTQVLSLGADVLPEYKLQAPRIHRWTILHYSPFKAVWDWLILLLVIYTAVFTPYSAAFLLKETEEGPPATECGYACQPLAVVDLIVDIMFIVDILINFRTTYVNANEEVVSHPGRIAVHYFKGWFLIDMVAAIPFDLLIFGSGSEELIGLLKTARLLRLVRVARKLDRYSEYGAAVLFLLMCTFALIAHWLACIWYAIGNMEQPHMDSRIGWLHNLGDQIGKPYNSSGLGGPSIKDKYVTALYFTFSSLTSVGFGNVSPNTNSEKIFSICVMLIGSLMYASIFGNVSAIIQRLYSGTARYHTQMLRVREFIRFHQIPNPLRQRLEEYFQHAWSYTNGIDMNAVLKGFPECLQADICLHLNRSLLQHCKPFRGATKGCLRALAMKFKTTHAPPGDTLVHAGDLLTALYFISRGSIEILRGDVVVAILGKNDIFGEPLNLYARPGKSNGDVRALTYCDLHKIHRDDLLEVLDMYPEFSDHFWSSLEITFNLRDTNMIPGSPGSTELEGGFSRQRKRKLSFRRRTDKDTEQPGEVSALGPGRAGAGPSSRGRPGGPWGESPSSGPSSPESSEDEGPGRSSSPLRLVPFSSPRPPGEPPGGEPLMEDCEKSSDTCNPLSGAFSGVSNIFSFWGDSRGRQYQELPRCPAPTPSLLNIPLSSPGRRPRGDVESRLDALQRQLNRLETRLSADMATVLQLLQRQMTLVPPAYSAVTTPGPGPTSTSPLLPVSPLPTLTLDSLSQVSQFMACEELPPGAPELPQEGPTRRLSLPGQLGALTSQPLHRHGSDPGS
# Experiment notes: Manual patch clamp assay for hERG inhibition
IC50 listing for selected molecules.
Quantity kind: IC50 (µM)

Molecule	Quantity kind	Recorded result
Cc1nonc1CC(=O)N1CCC(n2nnc(-c3ccc(F)cc3)n2)CC1 [V-59]	IC50	8.9
Cc1nonc1CC(=O)N1CCC(c2nc(-c3ccc(F)cc3)no2)CC1 [mCIS635]	IC50	9.5
Cn1ncnc1CC(=O)N1CCC(c2nc(-c3ccc(Cl)c(Cl)c3)no2)CC1 [mCLB073]	IC50	13.8
Cn1ncnc1CC(=O)N1CC2CC1CC2c1nc(-c2ccc(Cl)c(F)c2)no1 (stereo not shown) [mCLF178]	IC50	22.9

###

# Experiment notes: in vitro
# Measurement conditions: human, plasma
Quantity kind: fraction unbound at 4 h

Compound	Quantity kind	Recorded result
Cn1ncnc1CC(=O)N1CCC(c2nc(-c3ccc(Cl)c(Cl)c3)no2)CC1 [mCLB073]	fraction unbound at 4 h	0.024
Cn1ncnc1CC(=O)N1CC2CC1CC2c1nc(-c2ccc(Cl)c(F)c2)no1 (centres unmarked) [mCLF178]	fraction unbound at 4 h	0.111
